System: P. falciparum CQ-Resistant (W2 MR4)
Assay: In vitro malaria parasite development, 3H-hypoxanthine uptake, CQ-resistant strain
Type: cell-based
Details: 48 h exposure from ring stage; 3H-hypoxanthine uptake; geometric mean
measured.property: IC50 (µM)
Return type: number; implicit unit µM.

IC50 for C=C1C(=O)C[C@H]2C[C@@H]3O[C@@]3(C)CC[C@@H]3O[C@@]3(C)C[C@@H](OC(C)=O)[C@H]1C2(C)C [Hypoestoxide, hypoestoxide] is 10.6
